Origin of values: ChEMBL document CHEMBL1143374

Test system: Human immunodeficiency virus 1
Assay: Antiviral activity against HIV1 NL4-3 infected human MT2 cells assessed as viral infection at 25 uM administered 30 mins before viral challenge by luciferase reporter gene activation assay relative to control
Assay type: functional

structureSmiles | Activity
C[C@H](NC(=O)[C@]12CCC(C)(C)C[C@H]1C1=CC[C@@H]3[C@@]4(C)C[C@@H](O)[C@H](O)C(C)(C)[C@@H]4CC[C@@]3(C)[C@]1(C)CC2)C(=O)NCC(=O)O | 184.8%
CC1(C)CC[C@]2(C(=O)NCCCCCCCCCCC(=O)NCC(=O)O)CC[C@]3(C)C(=CC[C@@H]4[C@@]5(C)C[C@@H](O)[C@H](O)C(C)(C)[C@@H]5CC[C@]43C)[C@@H]2C1 | 49.8%
CC1(C)CC[C@]2(C(=O)NCCCC(=O)O)CC[C@]3(C)C(=CC[C@@H]4[C@@]5(C)C[C@@H](O)[C@H](O)C(C)(C)[C@@H]5CC[C@]43C)[C@@H]2C1 | 93.8%
CC(C)[C@H](NC(=O)CCCCCCCCCCNC(=O)[C@]12CCC(C)(C)C[C@H]1C1=CC[C@@H]3[C@@]4(C)C[C@@H](O)[C@H](O)C(C)(C)[C@@H]4CC[C@@]3(C)[C@]1(C)CC2)C(=O)O | 21.2%

* * *

Tested on: Human immunodeficiency virus 1
Assay: Antiviral activity against HIV1 NL4-3 infected human MT2 cells assessed as viral infection at 10 uM administered 30 mins before viral challenge by luciferase reporter gene activation assay relative to control
Type: functional
resultType: Activity (%)

structureSmiles | measuredValue
COC(=O)CCCCCCCCCCNC(=O)[C@]12CCC(C)(C)C[C@H]1C1=CC[C@@H]3[C@@]4(C)C[C@@H](O)[C@H](O)C(C)(C)[C@@H]4CC[C@@]3(C)[C@]1(C)CC2 | 66.9
C[C@H](NC(=O)CCCCCNC(=O)[C@]12CCC(C)(C)C[C@H]1C1=CC[C@@H]3[C@@]4(C)C[C@@H](O)[C@H](O)C(C)(C)[C@@H]4CC[C@@]3(C)[C@]1(C)CC2)C(=O)O | 107
CC1(C)CC[C@]2(C(=O)NCC(=O)O)CC[C@]3(C)C(=CC[C@@H]4[C@@]5(C)C[C@@H](O)[C@H](O)C(C)(C)[C@@H]5CC[C@]43C)[C@@H]2C1 | 162.1
